Molecular target: Angiotensin-converting enzyme (Oryctolagus cuniculus)
Sequence (P12822 whole entry): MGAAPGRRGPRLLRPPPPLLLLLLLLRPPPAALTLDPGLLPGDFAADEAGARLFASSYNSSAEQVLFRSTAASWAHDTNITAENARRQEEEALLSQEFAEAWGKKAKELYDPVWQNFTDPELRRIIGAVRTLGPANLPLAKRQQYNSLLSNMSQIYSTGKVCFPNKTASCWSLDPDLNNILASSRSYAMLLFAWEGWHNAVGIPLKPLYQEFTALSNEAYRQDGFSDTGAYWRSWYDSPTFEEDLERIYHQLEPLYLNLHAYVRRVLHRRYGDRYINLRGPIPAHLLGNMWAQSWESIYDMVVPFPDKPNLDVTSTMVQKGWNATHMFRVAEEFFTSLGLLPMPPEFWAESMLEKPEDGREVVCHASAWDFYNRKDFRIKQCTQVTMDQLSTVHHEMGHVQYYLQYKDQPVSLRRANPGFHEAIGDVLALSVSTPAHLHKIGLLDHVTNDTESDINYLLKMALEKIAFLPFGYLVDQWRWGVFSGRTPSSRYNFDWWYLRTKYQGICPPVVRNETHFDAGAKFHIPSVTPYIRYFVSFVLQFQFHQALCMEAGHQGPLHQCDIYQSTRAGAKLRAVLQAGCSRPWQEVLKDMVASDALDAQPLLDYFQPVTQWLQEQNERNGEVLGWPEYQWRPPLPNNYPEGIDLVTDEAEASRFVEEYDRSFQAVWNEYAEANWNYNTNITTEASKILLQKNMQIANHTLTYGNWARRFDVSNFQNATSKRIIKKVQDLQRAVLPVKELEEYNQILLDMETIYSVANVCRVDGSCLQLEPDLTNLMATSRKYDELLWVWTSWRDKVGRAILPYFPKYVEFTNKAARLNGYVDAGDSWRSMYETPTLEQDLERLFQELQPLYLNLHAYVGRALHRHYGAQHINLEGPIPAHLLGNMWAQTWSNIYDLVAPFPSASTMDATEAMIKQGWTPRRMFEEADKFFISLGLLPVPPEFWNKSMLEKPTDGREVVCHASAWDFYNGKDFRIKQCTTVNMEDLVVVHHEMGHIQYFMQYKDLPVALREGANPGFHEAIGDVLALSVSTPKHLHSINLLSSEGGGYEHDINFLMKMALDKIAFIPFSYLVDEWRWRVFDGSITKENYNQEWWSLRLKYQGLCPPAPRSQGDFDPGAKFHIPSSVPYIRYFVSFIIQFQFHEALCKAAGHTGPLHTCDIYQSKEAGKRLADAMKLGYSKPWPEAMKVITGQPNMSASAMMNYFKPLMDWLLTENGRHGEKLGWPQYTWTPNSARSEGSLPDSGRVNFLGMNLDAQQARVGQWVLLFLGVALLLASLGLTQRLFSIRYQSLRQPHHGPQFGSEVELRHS
pKi: −log10 of the molar value.

[
  {
    "record smiles": "O=C(N[C@H]1Cc2ccccc2[C@H]2CCC[C@@H](C(=O)O)N2C1=O)[C@H](S)Cc1ccccc1",
    "measurement target": "Angiotensin-converting enzyme (Oryctolagus cuniculus)",
    "pKi": 8.35
  }
]

* * *

biological target: B2 bradykinin receptor (Homo sapiens); experiment: Binding affinity to B2 bradykinin receptor (unknown origin); conditions: read-out: Ki
Let's look at some compounds and their measured Ki.
value type: Ki (nM)

[
  {
    "compound": "N=C(N)NCCC[C@@H](N)C(=O)N[C@@H](CCCNC(=N)N)C(=O)N1CCC[C@H]1C(=O)N1C[C@H](O)C[C@H]1C(=O)NCC(=O)N[C@@H](Cc1cccs1)C(=O)N[C@H]1CSSC[C@@H](C(=O)N[C@@H](CCCNC(=N)N)C(=O)O)NC(=O)[C@H](Cc2ccccc2)NC(=O)[C@H](Cc2ccccc2)NC1=O",
    "value observed": 876
  },
  {
    "compound": "N=C(N)NCCC[C@@H](N)C(=O)N[C@@H](CCCNC(=N)N)C(=O)N1CCC[C@H]1C(=O)N1C[C@H](O)C[C@H]1C(=O)NCC(=O)N[C@@H](Cc1cccs1)C(=O)N[C@@H](CO)C(=O)N1Cc2ccccc2C[C@@H]1C(=O)N1Cc2ccccc2C[C@@H]1C(=O)N[C@@H](CCCNC(=N)N)C(=O)O",
    "value observed": 571
  },
  {
    "compound": "N=C(N)NCCCC(NC(=O)[C@@H]1C[C@@H]2CCC[C@@H]2N1C(=O)[C@H]1Cc2ccccc2CN1C(=O)[C@H](CO)NC(=O)[C@H](Cc1cccs1)NC(=O)CNC(=O)[C@@H]1C[C@@H](O)CN1C(=O)[C@@H]1CCCN1C(=O)[C@H](CCCNC(=N)N)NC(=O)[C@H](N)CCCNC(=N)N)C(=O)O (some centres undefined)",
    "value observed": 0.18
  },
  {
    "compound": "N=C(N)NCCC[C@@H](N)C(=O)N[C@@H](CCCNC(=N)N)C(=O)N1CCC[C@H]1C(=O)N1C[C@H](O)C[C@H]1C(=O)NCC(=O)N[C@@H](Cc1cccs1)C(=O)N[C@@H](CO)C(=O)N1Cc2ccccc2C[C@@H]1C(=O)N1Cc2ccccc2C[C@H]1C(=O)N[C@@H](CCCNC(=N)N)C(=O)O",
    "value observed": 0.38
  }
]

* * *

Reported values of pIC50 for individual entries
experiment: Inhibition of farnesyltransferase (unknown origin); design: species or system Homo sapiens
pIC50: −log10 of the molar value.

[
  {
    "compound": "CSCC[C@H](NC(=O)[C@@H]1Cc2ccccc2CN1C[C@@H](NC(=O)[C@@H](N)CS)C(C)C)C(=O)O",
    "pIC50": 9.43
  },
  {
    "compound": "CSCC[C@H](NC(=O)[C@H]1Cc2ccccc2CN1C(=O)[C@@H]1CCCN1C(=O)[C@H](CS)NC(=O)[C@@H](N)CCCCN)C(=O)O",
    "pIC50": 4.00
  },
  {
    "compound": "CSCC[C@H](NC(=O)[C@@H]1Cc2ccccc2CN1C(=O)[C@@H](NC[C@@H](N)CS)C(C)C)C(=O)O",
    "pIC50": 9.22
  },
  {
    "compound": "CSCC[C@H](NC(=O)C1CC=CCN1C(=O)[C@@H](NC[C@@H](N)CS)C(C)C)C(=O)O (some centres undefined)",
    "pIC50": 6.57
  }
]

* * *

Target: B2 bradykinin receptor (Homo sapiens)
Sequence (P30411 whole entry): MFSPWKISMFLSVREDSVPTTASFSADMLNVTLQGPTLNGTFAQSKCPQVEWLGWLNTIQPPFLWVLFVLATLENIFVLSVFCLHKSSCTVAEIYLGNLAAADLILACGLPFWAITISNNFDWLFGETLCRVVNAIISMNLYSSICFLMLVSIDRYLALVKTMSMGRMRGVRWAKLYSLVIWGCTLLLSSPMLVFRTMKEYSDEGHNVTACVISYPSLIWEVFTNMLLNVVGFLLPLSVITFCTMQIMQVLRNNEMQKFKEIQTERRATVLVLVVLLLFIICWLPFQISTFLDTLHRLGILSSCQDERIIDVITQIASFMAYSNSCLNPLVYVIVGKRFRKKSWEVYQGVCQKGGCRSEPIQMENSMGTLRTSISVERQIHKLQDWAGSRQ
Experiment: Antagonist potency at B2 bradykinin receptor (unknown origin)
Conditions: read-out: pA2 (converted)
# Kb listing for each entry below
value type: Kb (nM)

[
  {
    "record smiles": "N=C(N)NCCC[C@@H](N)C(=O)N[C@@H](CCCNC(=N)N)C(=O)N1CCC[C@H]1C(=O)N1C[C@H](O)C[C@H]1C(=O)NCC(=O)N[C@@H](Cc1cccs1)C(=O)N[C@@H](CO)C(=O)N1CCC[C@]12Cc1ccccc1CN(CC(=O)N[C@@H](CCCNC(=N)N)C(=O)O)C2=O",
    "value observed": 3160
  },
  {
    "record smiles": "N=C(N)NCCC[C@@H](N)C(=O)N[C@@H](CCCNC(=N)N)C(=O)N1CCC[C@H]1C(=O)N1C[C@H](O)C[C@H]1C(=O)NCC(=O)N[C@@H](Cc1cccs1)C(=O)N[C@@H](CO)C(=O)N1CCC[C@@]12Cc1ccccc1CN(CC(=O)N[C@@H](CCCNC(=N)N)C(=O)O)C2=O",
    "value observed": 2000
  }
]

* * *

molecular target: Angiotensin-converting enzyme (Homo sapiens, UniProt P12821)
Sequence (P12821 whole entry): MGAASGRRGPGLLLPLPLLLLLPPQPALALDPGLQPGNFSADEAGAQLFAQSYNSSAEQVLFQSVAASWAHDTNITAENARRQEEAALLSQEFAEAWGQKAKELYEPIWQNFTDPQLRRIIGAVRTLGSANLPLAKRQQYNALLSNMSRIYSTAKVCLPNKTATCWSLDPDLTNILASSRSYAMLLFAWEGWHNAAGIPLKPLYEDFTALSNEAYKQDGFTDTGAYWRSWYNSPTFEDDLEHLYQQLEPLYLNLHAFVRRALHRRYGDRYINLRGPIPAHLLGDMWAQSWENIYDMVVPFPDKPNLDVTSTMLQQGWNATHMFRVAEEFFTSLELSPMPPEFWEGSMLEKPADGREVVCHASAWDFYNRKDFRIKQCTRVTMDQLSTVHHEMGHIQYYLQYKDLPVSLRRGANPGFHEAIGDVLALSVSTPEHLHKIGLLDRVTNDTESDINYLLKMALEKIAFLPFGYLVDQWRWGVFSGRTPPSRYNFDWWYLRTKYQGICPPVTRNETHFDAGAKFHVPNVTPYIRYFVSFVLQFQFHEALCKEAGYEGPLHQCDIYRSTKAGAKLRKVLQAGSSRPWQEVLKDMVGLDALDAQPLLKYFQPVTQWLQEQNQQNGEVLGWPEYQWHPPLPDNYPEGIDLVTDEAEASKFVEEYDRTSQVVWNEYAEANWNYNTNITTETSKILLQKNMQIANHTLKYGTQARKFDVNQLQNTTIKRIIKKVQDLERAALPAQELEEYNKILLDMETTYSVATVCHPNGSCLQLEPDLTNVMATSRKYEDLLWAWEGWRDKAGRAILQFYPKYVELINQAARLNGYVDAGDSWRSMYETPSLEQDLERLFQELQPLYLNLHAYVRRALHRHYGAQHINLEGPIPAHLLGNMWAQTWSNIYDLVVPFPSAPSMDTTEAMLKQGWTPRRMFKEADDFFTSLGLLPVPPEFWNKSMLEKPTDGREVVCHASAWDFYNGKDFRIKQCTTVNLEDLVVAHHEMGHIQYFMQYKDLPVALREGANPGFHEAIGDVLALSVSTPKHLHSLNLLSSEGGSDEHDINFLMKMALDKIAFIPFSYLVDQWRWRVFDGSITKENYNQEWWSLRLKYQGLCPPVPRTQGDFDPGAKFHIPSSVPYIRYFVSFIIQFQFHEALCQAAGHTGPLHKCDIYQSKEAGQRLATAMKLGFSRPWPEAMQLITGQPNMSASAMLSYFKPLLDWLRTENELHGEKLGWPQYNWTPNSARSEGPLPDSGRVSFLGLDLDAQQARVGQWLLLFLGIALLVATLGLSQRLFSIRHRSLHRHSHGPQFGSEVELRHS
pIC50: −log10 of the molar value.
Binary classification by pIC50, with 8 as an inclusive lower bound for Condition met; all other cases are Condition not met.

[
  {
    "record smiles": "O=C(O)CN1C(=O)[C@@H](N[C@@H](CCc2ccccc2)C(=O)O)CCc2ccccc21",
    "label": "Condition met"
  },
  {
    "record smiles": "CCOC(=O)[C@H](CCc1ccccc1)N[C@@H](C)C(=O)N1[C@H](C(=O)O)C[C@@H]2CCC[C@@H]21",
    "label": "Condition met"
  },
  {
    "record smiles": "C[C@H](N[C@@H](CCc1ccccc1)C(=O)O)C(=O)N1Cc2ccccc2[C@H]1C(=O)O",
    "label": "Condition not met"
  },
  {
    "record smiles": "C[C@H](N[C@@H](CCc1ccccc1)C(=O)O)C(=O)N1CCc2ccccc2[C@H]1C(=O)O",
    "label": "Condition met"
  },
  {
    "record smiles": "CCC[C@H](N[C@@H](C)C(=O)N1[C@H](C(=O)O)C[C@@H]2CCCC[C@@H]21)C(=O)OCC",
    "label": "Condition met"
  }
]
